# assayProtocol: Compound was evaluated for pyranenamine lipophilicity
# Format: physicochemical
# experimentalContext: octanol/water
measurementKind: logP
Just the number, please, no unit attached.

CC(=O)c1c(O)c(/C(C)=N/c2cc(NC(=O)C(O)CO)cc(NC(=O)C(O)CO)c2)c(O)oc1=O (stereo not given)    -2.44
CC(=O)C1=C(O)C(=C(C)Nc2cc(NC(=O)[C@H](O)CO)cc(NC(=O)[C@H](O)CO)c2)C(=O)OC1=O    -2.44
CC(=O)c1c(O)c(/C(C)=N/c2cc(NC(=O)CO)cc(NC(=O)CO)c2)c(O)oc1=O    -0.32

Q) Quick check: logP of CC(=O)C1=C(O)C(=C(C)Nc2cc(NC(=O)[C@@H](O)CO)cc(NC(=O)[C@@H](O)CO)c2)C(=O)OC1=O ?
A) -2.44

Q) Further, for CC(=O)c1c(O)c(/C(C)=N/c2cc(NC(=O)C(CO)CO)cc(NC(=O)C(CO)CO)c2)c(O)oc1=O ?
A) -2.43

All figures here come from ChEMBL document CHEMBL1125909.
